Method Description: soluble fraction after stress (log2 fold change); higher = more stays soluble; pooled small domains, quantitative proteomics
Particulars: stress: 50 degC
Grouping by measured soluble fraction (log2) is done with the following cut points: I (below -0.9), II (-0.9 to below -0.02), III (-0.02 or more)

| Seq String | Class Assignment |
| --- | --- |
| HMVSQELIMLGNRIREYRKERGFSQEILAEKSGVSTNTISRIEGGQMAMSVGILQRIVKALGVDANVMLG | II |
| HMERAPAYPDGLTQREVEVLRLIASGKTDREIAEELFIGVRTVSTHVGNILNKTNSANRTEAASYANQQGL | II |
| HMARRKRDIDSDINVKVFEHWLDNLDSASRESFSAFAEETFSPIQVYLYAKFLGYESSIIAVDHWVAVAYP | III |
| HMSNGFFELKTSQQDELIDLIDSHTNFVRTKIEGELITAFLKLPMDAEEFNKLLFTNGIILSHLVKRK | II |
| HMDAPQRVTYLLPHSRGEVVSWLHRQGEVVAQEYEAEGVRVVVDLRYAQIRQAAKQFDVLPAEG | II |
| HMEVSTRQVRAALRDIIEAEDKKRPLSDEAITARLREQGLPVARRTVAKYREQMGILAARLRK | II |
| HMEQKISVPALVGRDIEEILADTEVTGNFTIKEADKRVASNRPVGEVLEQDPGTGESAVKGTIITVTVSAG | III |
| HMTEQLTLVGKTGVTTTDLRPSGKVEVDGKRYDAVADNGAFISKGAHIKVVRYVTGQVYVVPTD | III |
| HMSVKTIRKTEFAKRLYSLMLEKNWNQSDLARASGMGRDSVSQYIRANNTPSPQNLKKLAEALGVEPVELY | I |
| HMTEDIAVRILEFLEDNNGFYALNDKTPSEKIHDLFGVSKKKFKIALGGLYKQRLITVSDAGVTLVK | I |
| HMSQYVPDPVLNAALVGYLDFRKQAGKPMTDYSIRLLLVDLAKLSGNPQEQAAILDQSTKNNWIGVYALG | I |
| HMIALKNLREEKRMTQAELSKDLEISPSAIGMYEQGRRVPDVSTLKKISAYFNVSIDYLLGNSTSKDI | III |
| HMLLFNPGEVLKGFVLQSGTNNRVLLQIGDSRVIADTQTPLKAGEQLVLRVEETGPKTILQILG | III |
| HMPRIYSITINPEKIRTVIGPGGKVIKDITAKTGTKIEIDDSGKVDIFSPDEEHARMAVEIINTLTEE | III |
| HMEVKVSGHLEAIGGVYHMKLSWIDDAGKRRRKSKSTGLAERGNKKRANDMLIDFMREQEAEIAASGD | I |
| HMGPLTMGQRIVRLRTQAGLSQDALAEQLGVSRQSVSKWETDGSVPDLDRLVKLSKVFGVTLDELVKG | II |
| HMAFDESLVRSIQELLSELGYSPGKIDGLLGAKTVAAIKAFELEINKDQLTGEPSEELLIALQLAIRSSKM | I |
| HMSGHEVMVQRITAIIAELYQYGFVSRKKMMDEFNISERTLYRDLNRLGDRIVPDGDGIYRLAPAYA | I |
| HMENLSGNDIKYLRKKYNLTQKELADALGLQKFGDRTIRRWEAEETHPSKLEQSSIQSFFNSLK | III |
| HMEPEAKIDFILKAAQKRLGLYGYEKTTMQEIAADINMSKAALYYYFPDKESLFKAVVENEQEEYFH | I |
| HMVGKGASIILDRVNLPQYLEKFNEDGFDTIESLKNLNEIDLKEMGVKKGHIRVILNYLHEEY | II |
| HMTYNIPEHYQTIDVKEYVRKLVSDGDSDQIGRVEMELTEFETRNLFPVLKVLIYIIDTMRK | I |
| HMDEVHYLADKERGTTWEEILIHADRDIKFLSLSATINNKNEFLEWLVSLRGTTSLIHSSTRPIPLEI | III |
| HMQMLQDPFLNALRKEHVPVSIYLVNGIKLQGQVESFDQYVVLLRNTSVTQMVYKHAISTIVPARAVSL | II |
